# Assay name: chemical genetic growth profiling, strain panel (AID 1159580);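 also: tested at 20 µM; growth read once vehicle control cultures reached saturation at 30 °C; lower values mean less growth of the strain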
# Recorded conditions: S. cerevisiae deletion strains, growth OD, locus YBR009C, strain hhf1
Screen size: about 5,500 compounds; about 2,000 (36%) were called active. About 18% were inconclusive and are not listed. Rule as the data show it: active = normalized growth mostly below about 0.91 (no sharp cut-off); inconclusive = no clear call, values can overlap the other calls; inactive = mostly above about 0.92. Some of the results follow.
Outcomes: active, inactive

Compound	Class assignment
COP(=S)(OC)SCn1nnc2ccccc2c1=O	inactive
CC(C)CCCC(C)[C@H]1CCC2C3CC[C@H]4CC(=O)CC[C@]4(C)C3CC[C@@]21C (stereo partly specified)	inactive
FC(F)(F)COCC(F)(F)F	inactive
O=c1[nH]c2ccccc2n1CCCN1CCC(n2c(=O)[nH]c3cc(Cl)ccc32)CC1	inactive
COc1cc2c(cc1-c1coc3c4c(c(OC)cc3c1=O)OC(C)(C)C=C4)OCO2	inactive
COc1c2c(cc3occ(-c4ccc5c(c4)OCO5)c(=O)c13)OC(C)(C)C=C2	inactive
CC(C)=CCc1c(O)cc2occ(-c3ccc4c(c3)OCO4)c(=O)c2c1O	active
CCCCC(=O)O[C@H]1CCC2C3CCc4cc(O)ccc4C3CC[C@@]21C (stereo partly specified)	inactive
CC(=O)OC1CCC2C3CCc4cc(O)ccc4C3CCC12C (stereo unspecified)	inactive
O=C(CCCN1CC=C(n2c(=O)[nH]c3ccccc32)CC1)c1ccc(F)cc1	inactive
COc1ccc2c(=O)c(-c3cc4c(cc3OC)OCO4)coc2c1	inactive
CC(=O)O[C@H]1CC2CCC3C(CC[C@@]4(C)C3C[C@H]([N+]3(C)CCCCC3)[C@@H]4OC(C)=O)[C@@]2(C)C[C@@H]1[N+]1(C)CCCCC1 (stereo partly specified)	inactive
COc1cc(OC)c2c(=O)c(-c3ccc4c(c3)OCO4)coc2c1	inactive
C[C@]12CCC3c4ccc(O)cc4CCC3C1CC[C@@H]2OC(=O)CCC1CCCC1 (stereo partly specified)	inactive
CC1(C)C[C@@H]2C(=O)CC[C@H]3O[C@]3(C)CC[C@H]21	inactive
CCCc1nc(C(C)(C)O)c(C(=O)OCc2oc(=O)oc2C)n1Cc1ccc(-c2ccccc2-c2nn[nH]n2)cc1	inactive
CCCC(=O)Nc1ncnc2c1ncn2C1O[C@@H]2COP(=O)(O)O[C@H]2[C@H]1OC(=O)CCC (stereo partly specified)	inactive
O=c1[nH]cnc2nc[nH]c12	inactive
CCOc1nc2cccc(C(=O)OC(C)OC(=O)OC3CCCCC3)c2n1Cc1ccc(-c2ccccc2-c2nn[nH]n2)cc1 (stereo unspecified)	inactive
c1coc(CNc2ncnc3nc[nH]c23)c1	inactive
Nc1ncnc2nc[nH]c12	inactive

These measurements were taken from PubChem BioAssay AID1159580.
